test: A qHTS for Small Molecule Inhibitors of Shiga Toxin; settings: Vero cells, Shiga toxin protein synthesis inhibition reporter; at 38.7 µM, active compounds read high; note: 0% is about no effect
Hit rate of the full screen: of about 290,000 compounds, about 27,000 (9.3%) were called active. The full list was thinned out, with actives kept by preference.
Field: inhibition. Provide a value for each of the molecules that follow.
Number in %, nothing else.

Just so you know, measured inhibition for "COc1ccc(-n2cnnc2SCC(=O)Nc2cccc(S(N)(=O)=O)c2)cc1" came out at -21.7

Just so you know, measured inhibition for "Cn1c(=O)c2c(nc(Br)n2CCSc2nc3ccccc3o2)n(C)c1=O" came out at -12.2

Just so you know, measured inhibition for "O=S(=O)(Nc1ccc2[nH]ncc2c1)c1ccccc1Cl" came out at -6.01

Just so you know, measured inhibition for "CC(C)(C)c1ccc(C(=O)N2CCC(C(=O)N3CCCCC3)CC2)cc1" came out at -4.15

Just so you know, measured inhibition for FC(F)(F)C1CCCN(c2nsc3ccccc23)C1 (centres undefined) came out at -5.61

Just so you know, measured inhibition for Nc1ccccc1SC(C[N+](=O)[O-])c1ccccc1 (centres undefined) came out at 77.6

Just so you know, measured inhibition for CCc1ccc(NC(=O)NC(C)c2ccc3c(c2)OCO3)cc1 (centres undefined) came out at -6.59

Just so you know, measured inhibition for "CN1C(=O)/C(=C/C=C2\SCCN2C)OC1=S" came out at 70.4

Just so you know, measured inhibition for "CCOc1ncccc1C(=O)NCCc1ccc(OC)cc1" came out at -6.94

Just so you know, measured inhibition for "Nc1nc(SC23CC4CC(CC(C4)C2)C3)ns1" came out at 1.53

Just so you know, measured inhibition for "OCCNCCCCOc1ccccc1F" came out at -2.38

Just so you know, measured inhibition for Cc1cccc(NC(=O)c2ccc3c(=O)n(CC4CCCO4)c(=S)[nH]c3c2)c1 (centres undefined) came out at -1

Just so you know, measured inhibition for CCn1ccnc1CNC(=O)CC1C(=O)NCCN1Cc1ccc(F)cc1Cl (centres undefined) came out at -5.69

Just so you know, measured inhibition for "CCOc1cc2[nH]c(=S)n(Cc3ccc(C(=O)N4CCN(C)CC4)cc3)c(=O)c2cc1OCC" came out at 6.6

Just so you know, measured inhibition for "Cn1cc(CCC(=O)NC2CC2)c2ccccc21" came out at 11.7

Just so you know, measured inhibition for "N#CC(C#N)=CN=c1ccn(Cc2ccc(Cl)cc2Cl)cc1" came out at 1.18

Just so you know, measured inhibition for "CS(=O)(=O)N1CCN(C(=O)Cc2ccccc2)CC1" came out at 8.45

Just so you know, measured inhibition for CC1C(=O)N(Cc2ccccc2)c2ccccc2N1C(=O)c1ccccc1 (centres undefined) came out at 2.9

Just so you know, measured inhibition for COc1ccc(C)cc1N(C(=O)Cn1nnc(-c2ccc(C)o2)n1)C(C(=O)NC1CCCC1)c1ccncc1 (centres undefined) came out at -2.11

Just so you know, measured inhibition for "CCN(C(=O)Cc1c(C(=O)O)n(CC)c2ccccc12)c1ccccc1C" came out at 1.61

Just so you know, measured inhibition for "CCCSc1nsc(N)n1" came out at 11

Just so you know, measured inhibition for Cc1ccc(C(C[N+](=O)[O-])c2c(C)cc3ccccn23)cc1 (centres undefined) came out at 6.95

Just so you know, measured inhibition for "O=C(c1ccccc1)c1ccc(C(=O)N2CCN(c3ccccc3)CC2)cc1" came out at 30.8

Just so you know, measured inhibition for "Fc1ccccc1OCCSc1nc2ccccc2o1" came out at 110

###

assay: A qHTS for Small Molecule Inhibitors of Shiga Toxin; conditions: Vero cells, Shiga toxin protein synthesis inhibition reporter; at 38.7 µM; note: 0% is about no effect
The campaign covered roughly 290,000 compounds. About 27,000 (9.3%) were called active. Cut-off read from the data, not from the text of the source: active = inhibition mostly above about 28% (no sharp cut-off); inactive = mostly below about 43%. The list comes from a sample in which actives are over-represented; it also holds close analogues and randomly drawn compounds.
Use one of these outcomes when replying: active, inactive

Query: # outcome recorded in this test, key = "O=C(Nc1cc(C(F)(F)F)ccc1Cl)c1cc(C2CC2)on1"
Response: inactive

Query: # outcome recorded in this test, key = "CSc1ccccc1NC(=O)c1cc(C2CC2)on1"
Response: active

Query: # outcome recorded in this test, key = "O=C(NC1CCCC1)c1cc(-c2ccccc2)on1"
Response: active

Query: # outcome recorded in this test, key = "O=C(NC1CCN(S(=O)(=O)c2ccc(F)cc2)CC1)c1ccccc1"
Response: inactive

Query: # outcome recorded in this test, key = "O=C(NC1CC1)c1ccc(-c2ccccc2)cc1"
Response: active

Query: # outcome recorded in this test, key = CC(C)C(OC(=O)c1cccs1)C(=O)NC1CCCCC1 (stereo unspecified)
Response: inactive

###

assay: A qHTS for Small Molecule Inhibitors of Shiga Toxin; conditions: Vero cells, Shiga toxin protein synthesis inhibition reporter; at 38.7 µM; note: 0% is about no effect
Hit rate of the full screen: of about 290,000 compounds, about 27,000 (9.3%) were called active. Cut-off read from the data, not from the text of the source: active = inhibition mostly above about 28% (no sharp cut-off); inactive = mostly below about 43%. Shown is part of a subset that was picked to be rich in actives.
Use one of these outcomes when replying: active, inactive

Query: # outcome recorded in this test, key = "Cc1cccc(C(=O)N2CCC(c3nc4ccccc4s3)CC2)c1"
Response: inactive

Query: # outcome recorded in this test, key = "O=C(c1cccs1)N1CCC(c2nc3ccccc3s2)CC1"
Response: inactive

Query: # outcome recorded in this test, key = COc1ccc(C2(C)NC(=O)N(CC(=O)c3ccc4c(c3)OCO4)C2=O)cc1 (stereo not given)
Response: inactive

Query: # outcome recorded in this test, key = "Cc1ccc(-n2c(SCC(=O)N3CCC(C(=O)O)CC3)nc3ccccc3c2=O)cc1C"
Response: active

Query: # outcome recorded in this test, key = CCOc1cc(C2C(C(=O)c3ccco3)=C(O)C(=O)N2Cc2ccccc2)ccc1O (stereo not given)
Response: inactive

Query: # outcome recorded in this test, key = "Cc1ccc(NC(=O)CSc2sc3c(O)cc(=O)[nH]c3c2C#N)cc1C"
Response: inactive

Query: # outcome recorded in this test, key = CCOc1ccc(NC(=O)c2ccc(NC(=O)C3CCCO3)cc2)cc1 (stereo not given)
Response: inactive

Query: # outcome recorded in this test, key = "COc1cccc(-n2c(SCC(=O)c3c[nH]c4ccccc34)nc3ccccc3c2=O)c1"
Response: inactive

Query: # outcome recorded in this test, key = "Cc1ccc(CN2C(=O)N/C(=C/c3cc(C)n(-c4ccccn4)c3C)C2=O)cc1"
Response: inactive

Query: # outcome recorded in this test, key = "COc1cc(/C=N/NC(=O)Cc2ccccc2)cc(OC)c1OC"
Response: inactive

###

assay: A qHTS for Small Molecule Inhibitors of Shiga Toxin; conditions: Vero cells, Shiga toxin protein synthesis inhibition reporter; at 38.7 µM, active compounds read high; note: 0% is about no effect
In all, about 290,000 compounds went through this assay and about 27,000 (9.3%) were called active. This excerpt belongs to a sample that is enriched for actives.
Field: inhibition. Provide a value for each of the molecules that follow.
Number in %, nothing else.

Just so you know, measured inhibition for "CC(=O)Nc1cccc(-c2cnc3ccccc3n2)c1" came out at 116

Just so you know, measured inhibition for "CCCCSc1nc2ccccc2[nH]1" came out at 79.8

Just so you know, measured inhibition for CCCOC(=O)C1=C(C)NC2=C(C(=O)C(C(=O)OC)C(C)C2)C1c1ccc(N(C)C)cc1 (stereo not drawn) came out at 16.2

Just so you know, measured inhibition for CCCOC(=O)c1[nH]c2c(c1C)C(=O)CC(c1cccs1)C2 (stereo not drawn) came out at -12.4

Just so you know, measured inhibition for "COCc1ccc(CN2CCC(Oc3ccc(C(=O)NCc4ccccn4)cc3)CC2)o1" came out at -9.34

Just so you know, measured inhibition for "COCCCNC(=O)CNC(=O)c1nn(-c2ccc(OC)cc2)c(=O)c2ccccc12" came out at -3.74

Just so you know, measured inhibition for "COc1ccccc1CSc1ncc(-c2ccc([N+](=O)[O-])cc2)[nH]1" came out at 54.5

Just so you know, measured inhibition for "CC(C)c1c(C(=O)N/N=C/c2ccc(-c3ccccc3)cc2)nnn1-c1nonc1N" came out at -5.37

Just so you know, measured inhibition for "Cc1ccc(-c2cc(C(=O)Nc3nn[nH]n3)c3ccccc3n2)c(C)c1" came out at -11.6

Just so you know, measured inhibition for "O=C(NCc1ccccc1)c1onc(CSc2nc3ccccc3[nH]2)c1C(=O)NCc1ccccc1" came out at -3.72

Just so you know, measured inhibition for "COc1ccccc1CSc1nc2ccccc2[nH]1" came out at 71.9

Just so you know, measured inhibition for "CC(=O)c1ccc(N2Cc3ccccc3C2)cc1" came out at 79.3

Just so you know, measured inhibition for COC(=O)C1C(=O)c2c([nH]c(C(=O)OCCSC)c2C)CC1C (stereo not drawn) came out at 57.7

Just so you know, measured inhibition for "CCc1nnc(NC(=O)CCCSc2nc3ccccc3[nH]2)s1" came out at 13.8

Just so you know, measured inhibition for "COc1ccccc1CC(=O)Nc1ccc([N+](=O)[O-])cc1OC" came out at 2.24

Just so you know, measured inhibition for "CC(=O)c1ccc(S(=O)(=O)N2CCC3(CC2)OCCO3)cc1" came out at -3.96

Just so you know, measured inhibition for "Cc1cc(O)ccc1-c1cnc2ccccc2n1" came out at 99.9

Just so you know, measured inhibition for "O=C(Nc1ccccc1C(=O)N1CCCCC1)c1ccco1" came out at -5.5

Just so you know, measured inhibition for "COc1ccccc1-c1nc(C#N)c(N2CCC(C(N)=O)CC2)o1" came out at -15

Just so you know, measured inhibition for "CC1CCN(c2oc(-c3ccccc3F)nc2C#N)CC1" came out at 69.1

Just so you know, measured inhibition for Cc1oc(-c2ccccc2F)nc1CS(=O)CC(=O)NCCN1CCCCC1C (stereo not drawn) came out at -8.05

Just so you know, measured inhibition for "N#Cc1c(-c2ccccc2)nc(SCc2ccc([N+](=O)[O-])cc2)[nH]c1=O" came out at -3.91

Just so you know, measured inhibition for "COc1ccccc1-c1noc(CSc2nc(C)cc(=O)[nH]2)n1" came out at -3.44
